bioavailability by entry:
test: Oral bioavailability in male Sprague-Dawley rat at 5 mg/kg measured by LC-MS/MS analysis; type: ADME, organism-based; conditions: in vivo
Note: unit % is implicit; provide only the numeric part.

>>> df
                                   molecule  data_value
0  O=C(O)c1ccc2c(c1)Oc1ccc(OCc3c(-c4c(Cl)cccc4Cl)noc3C3CC3)nc1CC2        37.1

Incoming: Reported bioavailability, molecule O=C(O)c1ccc2c(c1)Oc1ccc(OCc3c(-c4c(Cl)cccc4Cl)noc3C3CC3)nc1C1(CC1)C2 : ____
Outgoing: 50.8

Incoming: Reported bioavailability, molecule CC1=Cc2ccc(C(=O)O)cc2Oc2ccc(OCc3c(-c4c(Cl)cccc4Cl)noc3C3CC3)nc21 : ____
Outgoing: 46.2

Incoming: Reported bioavailability, molecule CC1Cc2ccc(C(=O)O)cc2Oc2ccc(OCc3c(-c4c(Cl)cccc4Cl)noc3C3CC3)nc21 (centres undefined) : ____
Outgoing: 44.9

====

clearance by entry:
experiment: Clearance in male Sprague-Dawley rat at 1 mg/kg, iv measured by LC-MS/MS analysis; format: ADME, organism-based; details: in vivo

Here's what some known entries look like.
                                   compound      data_value
0  O=C(O)c1ccc2c(c1)Oc1ccc(OCc3c(-c4c(Cl)cccc4Cl)noc3C3CC3)nc1C1(CC1)C2  35.3 mL/min/kg
1  O=C(O)c1ccc2c(c1)Oc1ccc(OCc3c(-c4c(Cl)cccc4Cl)noc3C3CC3)nc1CC2  14.3 mL/min/kg
2  CC1Cc2ccc(C(=O)O)cc2Oc2ccc(OCc3c(-c4c(Cl)cccc4Cl)noc3C3CC3)nc21 (centres undefined)  30.3 mL/min/kg

Incoming: Reported clearance, compound CC1=Cc2ccc(C(=O)O)cc2Oc2ccc(OCc3c(-c4c(Cl)cccc4Cl)noc3C3CC3)nc21 : ____
Outgoing: 17.5 mL/min/kg

====

pEC50 by entry:
target: Bile acid receptor (Homo sapiens); assay: Agonist activity at human FXR expressed in HEK293T cells by luciferase reporter assay; assay type: cell-based
Sequence (Q96RI1 whole entry): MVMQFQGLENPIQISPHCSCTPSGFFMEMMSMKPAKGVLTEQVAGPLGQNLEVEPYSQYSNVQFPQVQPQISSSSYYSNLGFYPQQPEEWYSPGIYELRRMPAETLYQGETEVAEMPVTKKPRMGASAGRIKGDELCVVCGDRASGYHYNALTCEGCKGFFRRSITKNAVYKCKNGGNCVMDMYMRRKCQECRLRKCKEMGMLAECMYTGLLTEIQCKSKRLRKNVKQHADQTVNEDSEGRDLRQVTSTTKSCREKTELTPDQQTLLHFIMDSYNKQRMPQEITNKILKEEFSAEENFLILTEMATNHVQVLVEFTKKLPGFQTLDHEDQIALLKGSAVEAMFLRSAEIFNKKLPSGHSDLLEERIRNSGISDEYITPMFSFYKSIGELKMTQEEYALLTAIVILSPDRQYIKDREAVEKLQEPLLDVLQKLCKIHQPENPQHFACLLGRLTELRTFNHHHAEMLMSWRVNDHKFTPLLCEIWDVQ
// returns pEC50 (minus log10 of molar concentration), number only

>>> df
                                     smiles  data_value
0  O=C(O)c1ccc2c(c1)Oc1ccc(OCc3c(-c4c(Cl)cccc4Cl)noc3C3CC3)nc1C=C2F        6.66

Incoming: Reported pEC50, compound O=C(O)c1ccc2c(c1)Oc1ccc(OCc3c(-c4c(Cl)cccc4Cl)noc3C3CC3)cc1CC2 : ____
Outgoing: 6.46

Incoming: Reported pEC50, compound CC1=Cc2nc(OCc3c(-c4c(Cl)cccc4Cl)noc3C3CC3)ccc2Oc2cc(C(=O)O)ccc21 : ____
Outgoing: 7.06

Incoming: Reported pEC50, compound O=C(O)c1ccc2c(c1)Oc1ccc(OCc3c(-c4c(Cl)cccc4Cl)noc3C3CC3)nc1CC2 : ____
Outgoing: 6.99

====

biological target: Peroxisome proliferator-activated receptor delta (Homo sapiens); assay: Agonist activity at PPARdelta (unknown origin)
Sequence (Q03181 whole entry): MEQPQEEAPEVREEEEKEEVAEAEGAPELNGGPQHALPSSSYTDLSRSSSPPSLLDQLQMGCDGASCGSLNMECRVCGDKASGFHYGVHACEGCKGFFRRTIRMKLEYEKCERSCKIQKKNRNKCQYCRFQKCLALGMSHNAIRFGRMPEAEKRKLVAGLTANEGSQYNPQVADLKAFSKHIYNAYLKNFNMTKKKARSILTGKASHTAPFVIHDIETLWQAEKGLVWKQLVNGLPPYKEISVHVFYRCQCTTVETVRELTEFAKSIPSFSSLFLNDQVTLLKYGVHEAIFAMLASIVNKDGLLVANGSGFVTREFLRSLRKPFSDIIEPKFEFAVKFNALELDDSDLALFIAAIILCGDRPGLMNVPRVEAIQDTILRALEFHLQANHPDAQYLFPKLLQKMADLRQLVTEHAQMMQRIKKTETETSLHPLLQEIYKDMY
pEC50: −log10 of the molar value.
Measure Name: pEC50

Incoming: Reported pEC50, molecule O=C(O)c1ccc2c(c1)Oc1ccc(OCc3c(-c4c(Cl)cccc4Cl)noc3C3CC3)nc1C1(CC1)C2 : ____
Outgoing: < 5.00

====

assay: Clearance in male Beagle dog at 1 mg/kg, iv measured by LC-MS/MS analysis; assay type: ADME, organism-based, Canis lupus familiaris; conditions: in vivo
Measure Name: clearance (mL/min/kg)
Note: unit mL/min/kg is implicit; provide only the numeric part.

Incoming: Reported clearance, molecule O=C(O)c1ccc2c(c1)Oc1ccc(OCc3c(-c4c(Cl)cccc4Cl)noc3C3CC3)nc1C1(CC1)C2 : ____
Outgoing: 18.4

====

assay: Volume of distribution at steady state in male Sprague-Dawley rat at 1 mg/kg, iv measured by LC-MS/MS analysis; type: ADME, organism-based; details: in vivo, read-out: Vdss
Vd by entry:
Note: unit L/kg is implicit; provide only the numeric part.

Here's what some known entries look like.
>>> print(df.to_string())
                                   compound  data_value
0  CC1=Cc2ccc(C(=O)O)cc2Oc2ccc(OCc3c(-c4c(Cl)cccc4Cl)noc3C3CC3)nc21        0.35
1  O=C(O)c1ccc2c(c1)Oc1ccc(OCc3c(-c4c(Cl)cccc4Cl)noc3C3CC3)nc1C1(CC1)C2        0.65
2  CC1Cc2ccc(C(=O)O)cc2Oc2ccc(OCc3c(-c4c(Cl)cccc4Cl)noc3C3CC3)nc21 (centres undefined)        0.54

We next turn to a different compound, shown below.
Incoming: Reported Vd, compound O=C(O)c1ccc2c(c1)Oc1ccc(OCc3c(-c4c(Cl)cccc4Cl)noc3C3CC3)nc1CC2 : ____
Outgoing: 0.4

====

assay: AUC (0 to t) in male Sprague-Dawley rat at 1 mg/kg, iv measured by LC-MS/MS analysis; format: ADME, organism-based; parameters: dose 1 mg/kg, route iv; settings: in vivo
Measure Name: AUC(0-t) (ng·h/mL)
Note: unit ng·h/mL is implicit; provide only the numeric part.

Here's what some known entries look like.
In [3]: df
Out[3]:
                                   molecule  measure_name  unit_label  data_value
0  CC1=Cc2ccc(C(=O)O)cc2Oc2ccc(OCc3c(-c4c(Cl)cccc4Cl)noc3C3CC3)nc21      AUC(0-t)     ng·h/mL         963
1  CC1Cc2ccc(C(=O)O)cc2Oc2ccc(OCc3c(-c4c(Cl)cccc4Cl)noc3C3CC3)nc21 (centres undefined)      AUC(0-t)     ng·h/mL         554

Incoming: Reported AUC(0-t), molecule O=C(O)c1ccc2c(c1)Oc1ccc(OCc3c(-c4c(Cl)cccc4Cl)noc3C3CC3)nc1CC2 : ____
Outgoing: 1180

Incoming: Reported AUC(0-t), molecule O=C(O)c1ccc2c(c1)Oc1ccc(OCc3c(-c4c(Cl)cccc4Cl)noc3C3CC3)nc1C1(CC1)C2 : ____
Outgoing: 473

====

assay: Volume of distribution at steady state in male C57BL/6 mouse at 2 mg/kg, iv measured by LC-MS/MS analysis; type: ADME, organism-based; conditions: in vivo, read-out: Vdss
Measure Name: Vd (L/kg)
Note: unit L/kg is implicit; provide only the numeric part.

Incoming: Reported Vd, compound O=C(O)c1ccc2c(c1)Oc1ccc(OCc3c(-c4c(Cl)cccc4Cl)noc3C3CC3)nc1C1(CC1)C2 : ____
Outgoing: 3.83

The values you see were collected from ChEMBL document CHEMBL5154690.
